Tested on: SK-OV-3 ovarian
Assay: NCI tumour cell line growth inhibition, 48 h
Measured TGI of individual entries

Q. Quick check: TGI of Cc1cccc2c(N)c3cccc(C(=O)NCC[N+](C)(C)Cc4ccccc4[N+](=O)[O-])c3nc12 ?
A. > 95.1 µM

Q. Also Cc1nc2ccc(Cl)cc2c2c1CCN2c1ccc(F)cc1 , if possible.
A. > 100 µM

* * *

Test system: PC-3 prostate
Assay: NCI tumour cell line growth inhibition, 48 h
measurement.kind: TGI

As a guide, the following entries are already answered.
>>> observed_result("COc1c(Sc2c(SCSc3cnc4ccccc4c3Sc3cnc4ccccc4c3OC)cnc3ccccc23)cnc2ccccc12")
"> 100 µM"
>>> observed_result("O=C1NC(=O)C(CCC(=O)c2cccc3ccccc23)C(=O)N1")
"> 100 µM"
>>> observed_result("O=C(Nc1ccc(I)cc1F)c1cc(Br)ccc1O")
"7.13 µM"
>>> observed_result("COC(=O)[C@H](Cc1cn(C)cn1)NC(=O)[C@H](CC(C)C)NC(=O)Nc1cc(C(F)(F)F)cc(C(F)(F)F)c1")
"> 10 µM"
>>> observed_result("CCCCCCCCCCCCCCCCn1cc[n+](C)c1")
"0.58 µM"

Q. # input compound: CN(CCNC(=O)c1cn(C)c2c1ccc1ccccc12)CCNC(=O)c1cn(C)c2c1ccc1ccccc12 ; wanted: its TGI
A. 7.02 µM

Q. Would you mind doing CC(C)(C)c1cc(C[P+](c2ccccc2)(c2ccccc2)c2ccccc2)cc(C(C)(C)C)c1O as well?
A. 1.91 µM

Q. Try O=S(O)O.O=S(O)O.[Co].[NH2-].[NH2-].[NH2-].[NH2-] next.
A. > 100 µM

Q. And what about the compound C/C(O)=C(/C=N/C(=S)Nc1ccccc1)C(=O)Nc1ccccc1C ?
A. > 100 µM

Q. Next compound up: COc1cc2c3c(n(CCCN=[N+]=[N-])c(=O)c2cc1OC)-c1ccccc1C3=O
A. > 100 µM

Q. Request: CCCC(=O)OCC1OC(n2cc(F)c(=O)[nH]c2=O)C(F)C1O (stereo unspecified)
A. > 100 µM

Q. Please do the same for NC(=O)N/N=C\CC(O)(C(F)(F)Cl)C(F)(F)Cl as well.
A. > 10 µM

Q. What about c1cc(OCCN2CCCC2)ccc1CNc1ccc2nc(CCC3CCCCC3)[nH]c2c1 ?
A. 5.16 µM
